# Test system: THP-1 cells
# procedure details: TNFα generation assay
# Format: cell-based, human
# conditions: Homo sapiens, THP-1, THP-1 cells; Table 22; read-out: IC50 in TNFα generation assay
pIC50: −log10 of the molar value.
// pIC50 lookup, one value per entry

C[C@H](N)[C@@H](C)Nc1nc(Nc2ccc3ncccc3c2)c(C(N)=O)cc1F [Example 006-275]    > 7.19
CCc1nn(C)c2ccc(Nc3nc(N[C@H](CC)[C@H](C)N)c(F)cc3C(N)=O)cc12    6.70 to 6.89
CCn1ncc2cc(Nc3nc(N[C@H](c4ccccc4)[C@H](C)N)c(F)cc3C(N)=O)ccc21    > 7.19

Q) Write down the reported pIC50 (system: THP-1 cells) of "CC(C)C[C@H](CN)Nc1nc(Nc2ccc3scnc3c2)c(C(N)=O)cc1F"
A) 6.70 to 6.89

Q) Write down the reported pIC50 (system: THP-1 cells) of "C[C@@H](Nc1nc(Nc2ccc3ncccc3c2)c(C(N)=O)cc1F)C(N)=O"
A) 6.89 to 7.19

* * *

# tested target: glutathione S-transferase (GST)-fused full-length human Syk protein (Homo sapiens, UniProt P43405)
# Construct: (GST)-fused full-length human Syk protein; GST (glutathione S-transferase); purchased Carna Biosciences
# procedure details: Syk enzyme assay
# Assay type: biochemical
# conditions: Syk enzyme assay, Test Example 1; read-out: IC50 of Syk-inhibitory activity
experimental endpoint: IC50

Reference set, count: 2
NC(=O)c1cc(F)c(NC2CCCCC2N)nc1Nc1cncc(NC(=O)c2ccccc2OC(F)(F)F)c1 (stereo not drawn) [Example 027-026]    50 to 100 nM
NC(=O)c1cc(F)c(NC2CCCCC2N)nc1Nc1cncc(-c2ccc(OC(F)(F)F)cc2)c1 (stereo not drawn) [Example 002-174]    50 to 100 nM

Moving on to the next compound.
Q) Provide IC50 value for the following compound: C[C@H](N)[C@@H](CC1CC1)Nc1nc(Nc2ccc3c(cnn3CC(F)F)c2)c(C(N)=O)cc1F [Example 006-426]
A) 100 to 1000 nM

* * *

# Test system: THP-1 cells
# procedure details: TNFα generation assay
# Format: cell-based, human
# conditions: Homo sapiens, THP-1, THP-1 cells; Table 22; read-out: IC50 in TNFα generation assay
experimental endpoint: IC50

Reference set, count: 2
CCC[C@@H](Nc1nc(Nc2ccnc(OC)c2)c(C(N)=O)cc1F)[C@@H](N)CC    130 to 200 nM
CCC[C@@H](Nc1nc(Nc2cccc3ncccc23)c(C(N)=O)cc1F)[C@H](C)N    65 to 130 nM

Q) Write down the reported IC50 (system: THP-1 cells) of "CCOc1nn(CC)c2ccc(Nc3nc(N[C@H](CC4CC4)[C@H](C)N)c(F)cc3C(N)=O)cc12"
A) 130 to 200 nM

Q) Write down the reported IC50 (system: THP-1 cells) of NC(=O)c1cc(F)c(NC2CCCCC2N)nc1Nc1cncc(-c2ccc([N+](=O)[O-])cc2)c1 (centres unmarked)
A) 130 to 200 nM

Q) Write down the reported IC50 (system: THP-1 cells) of "NC(=O)c1cc(F)c(N[C@@H]2CCCC[C@@H]2N)nc1Nc1cnc2ccccc2c1"
A) < 65 nM

Q) Write down the reported IC50 (system: THP-1 cells) of "NC(=O)c1cc(F)c(N[C@@H]2CCCC[C@@H]2N)nc1Nc1ccc(N2CCOC2=O)nc1"
A) 65 to 130 nM

Q) Write down the reported IC50 (system: THP-1 cells) of "CCC[C@@H](Nc1nc(Nc2ccc3scnc3c2)c(C(N)=O)cc1F)[C@H](C)N"
A) 65 to 130 nM

Q) Write down the reported IC50 (system: THP-1 cells) of COc1cc(Nc2nc(N[C@@H]3CCCC[C@@H]3N)c(F)cc2C(N)=O)c2cc[nH]c2n1 (relative stereo)
A) 65 to 130 nM

Q) Write down the reported IC50 (system: THP-1 cells) of Cc1nc2ccc(Nc3nc(N[C@H](C)[C@H](C)N)c(F)cc3C(N)=O)cc2nc1C (racemic)
A) 65 to 130 nM

Q) Write down the reported IC50 (system: THP-1 cells) of "CC[C@H](N)[C@@H](CC)Nc1nc(Nc2ccc3ncccc3c2)c(C(N)=O)cc1F"
A) 65 to 130 nM

* * *

# tested target: glutathione S-transferase (GST)-fused full-length human Syk protein (Homo sapiens)
# Construct: (GST)-fused full-length human Syk protein; GST (glutathione S-transferase); purchased Carna Biosciences
# procedure details: Syk enzyme assay
# Assay type: biochemical
# conditions: Syk enzyme assay, Test Example 1; read-out: IC50 of Syk-inhibitory activity
pIC50: −log10 of the molar value.
// pIC50 lookup, one value per entry

Reference set, count: 8
NC(=O)c1cc(F)c(NC2CCCC[C@@H]2N)nc1Nc1ccnc2c1ccn2CC(=O)N1CCOCC1 (stereo partly drawn) [Example 029-006]    > 8.00
NC(=O)c1cc(F)c(NC2CCCCC2N)nc1Nc1ccc(-n2nccn2)nc1 (stereo not drawn) [Example 002-161]    7.00 to 7.30
COc1cccc(C(=O)Nc2cncc(Nc3nc(NC4CCCCC4N)c(F)cc3C(N)=O)c2)c1 (stereo not drawn) [Example 027-028]    7.30 to 8.00
NC(=O)c1cc(F)c(NC2CCCC2N)nc1Nc1ccc2ncccc2c1 (stereo not drawn) [Example 006-175]    7.30 to 8.00
CC[C@@H](Nc1nc(Nc2ccc3c(c2)c(C2CC2)nn3C)c(C(N)=O)cc1F)[C@H](C)N [Example 006-547]    > 8.00
COc1cccc(Nc2nc(NC3CCCCC3N)c(F)cc2C(N)=O)c1 (stereo not drawn) [Example 002-006]    > 8.00
CNC(=O)c1cncc(Nc2nc(N[C@@H]3CCCC[C@@H]3N)c(F)cc2C(N)=O)c1 [Example 004-010]    7.30 to 8.00
CCC[C@@H](Nc1nc(Nc2ccnc(-c3cc(OC)ccc3F)c2)c(C(N)=O)cc1F)[C@H](C)N [Example 006-290]    > 8.00

Moving on to the next compound.
Q) Write down the reported pIC50 (system: glutathione S-transferase (GST)-fused full-length human Syk protein (Homo sapiens)) of COc1ccc(-c2cncc(Nc3nc(N[C@@H](CN)CC(C)C)c(F)cc3C(N)=O)c2)c(F)c1 [Example 006-319]
A) 7.30 to 8.00

* * *

// pIC50 lookup, one value per entry
# tested target: glutathione S-transferase (GST)-fused full-length human Syk protein (Homo sapiens, UniProt P43405)
# Construct: (GST)-fused full-length human Syk protein; GST (glutathione S-transferase); purchased Carna Biosciences
# procedure details: Syk enzyme assay
# Format: biochemical
# conditions: Syk enzyme assay, Test Example 1; read-out: IC50 of Syk-inhibitory activity
pIC50: −log10 of the molar value.

Reference set, count: 5
Cc1ncc(Nc2nc(NC3CCCCC3N)c(F)cc2C(N)=O)cc1-n1cncn1 (stereo not drawn)    7.00 to 7.30
COCCNc1cc(Nc2nc(N[C@@H]3CCCC[C@@H]3N)c(F)cc2C(N)=O)cc2cccnc12 (relative stereo)    > 8.00
COCCOc1ncc(Nc2nc(N[C@@H]3CCCC[C@@H]3N)c(F)cc2C(N)=O)cc1-n1cccn1    7.30 to 8.00
NC(=O)c1cc(F)c(N[C@H](Cc2ccccc2)C(N)=O)nc1Nc1ccc2ncccc2c1    7.30 to 8.00
NC(=O)c1cc(F)c(NC2CCCCC2N)nc1Nc1ccnc(C(F)(F)F)c1 (stereo not drawn)    7.30 to 8.00

Q) Provide pIC50 value for the following compound: COc1ncc(Nc2nc(NC3CCCCC3N)c(F)cc2C(N)=O)cc1C (stereo not drawn)
A) 7.30 to 8.00

* * *

# tested target: glutathione S-transferase (GST)-fused full-length human Syk protein (Homo sapiens, UniProt P43405)
# Construct: (GST)-fused full-length human Syk protein; GST (glutathione S-transferase); purchased Carna Biosciences
# procedure details: Syk enzyme assay
# Type: biochemical
# conditions: Syk enzyme assay, Test Example 1; read-out: IC50 of Syk-inhibitory activity
# Protocol: A glutathione S-transferase (GST)-fused full-length human Syk protein (Carna Biosciences), which had been generated using a Baculovirus expression system, was used in the Syk enzyme assay. 15 μl of a reaction solution (1.2 ng Syk, 20 mM HEPES, 10 mM MgCl2, 50 mM NaCl, 2 mM DTT, 0.05% BSA, pH 7.0) containing a Syk protein and a predetermined concentration of a test compound was shaken for 2 minutes, and it was then left at rest at room temperature for 13 minutes. […]
experimental endpoint: IC50

Reference set, count: 5
Cn1ccc2cc(-c3cncc(Nc4nc(N[C@@H]5CCCC[C@@H]5N)c(F)cc4C(N)=O)c3)ccc21 (relative stereo) [Example 006-091]    10 to 50 nM
CC[C@@H](Nc1nc(Nc2cncc(C3CC3)c2)c(C(N)=O)cc1F)[C@H](C)N [Example 006-255]    < 10 nM
NC(=O)c1cc(F)c(N[C@@H]2CCCC[C@@H]2N)nc1Nc1ccnc2c1ccn2CCN1CCOCC1 [Example 004-025]    < 10 nM
NC(=O)c1cc(F)c(N[C@@H]2CCCC[C@@H]2N)nc1Nc1cnc2c([N+](=O)[O-])cccc2c1 [Example 004-005]    < 10 nM
C[C@H](N)[C@@H](C)Nc1nc(Nc2ccnc(-n3nccn3)c2)c(C(N)=O)cc1F (racemic) [Example 006-189]    10 to 50 nM

Q) Provide IC50 value for the following compound: CC(C)[C@H](CN)Nc1nc(Nc2ccc3ncccc3c2)c(C(N)=O)cc1F [Example 006-160]
A) < 10 nM

Q) Provide IC50 value for the following compound: NC(=O)c1cc(F)c(N[C@@H]2CCCC[C@@H]2N)nc1Nc1cncc(-c2ccc3[nH]ccc3c2)c1 (relative stereo) [Example 004-076]
A) < 10 nM

Q) Provide IC50 value for the following compound: NC(=O)c1cc(F)c(N[C@@H]2CCCC[C@@H]2N)nc1Nc1cncc(-c2ccccc2Cl)c1 (relative stereo) [Example 004-146]
A) < 10 nM

Q) Provide IC50 value for the following compound: CCOc1nn(CC)c2ccc(Nc3nc(N[C@H](CC4CC4)[C@H](C)N)c(F)cc3C(N)=O)cc12 [Example 006-591]
A) < 10 nM
